These entries and their values trace back to paper PMC8153121.

property.label: melting point

Look at this compound and give its reported melting point. "COc1cccc2c1C(=O)c1c(O)c3c(c(O)c1C2=O)C[C@@](O)(C(=O)CO)C[C@@H]3O[C@H]1C[C@H](NC[C@H]2C(=O)O[C@@H]3CC4=CCC[C@H](C)[C@@]4(C)[C@@H](O)[C@@H]32)[C@H](O)[C@H](C)O1" 170 to 175 °C

I'd like to know its melting point. The compound in question is "COc1cccc2c1C(=O)c1c(O)c3c(c(O)c1C2=O)C[C@@](O)(C(C)=O)C[C@@H]3O[C@H]1C[C@H](NC[C@H]2C(=O)O[C@@H]3C[C@@]4(C)CCC=C(C)C4=C[C@@H]32)[C@H](O)[C@H](C)O1" 152 to 158 °C

// melting point lookup, key: "COc1cccc2c1C(=O)c1c(O)c3c(c(O)c1C2=O)C[C@@](O)(C(=O)CO)C[C@@H]3O[C@H]1C[C@H](NC[C@H]2C(=O)O[C@@H]3C[C@@]4(C)CCC=C(C)C4=C[C@@H]32)[C@H](O)[C@H](C)O1" 166 to 170 °C

Consider the record given below.
Need melting point of "COc1cccc2c1C(=O)c1c(O)c3c(c(O)c1C2=O)C[C@@](O)(C(C)=O)C[C@@H]3O[C@H]1C[C@H](NC[C@H]2C(=O)O[C@@H]3CC4=CCC[C@H](C)[C@@]4(C)[C@@H](O)[C@@H]32)[C@H](O)[C@H](C)O1" , thanks. 155 to 162 °C

* * *

- Tested on: RD (embryonic rhabdomyosarcoma)
- protocol: MTT cell viability test, RD
- Type: cell-based, Human
- protocol.conditions: MTT, 72 h; read-out: IC50, RD
Property: IC50; scope: individual compounds

Report IC50 for COc1cccc2c1C(=O)c1c(O)c3c(c(O)c1C2=O)CC(O)(C(=O)CO)CC3OC1CC(NCC2C(=O)OC3CC4(C)CCCC(C)C45OC5C32)C(O)C(C)O1 (stereo not shown) tested on RD (embryonic rhabdomyosarcoma). 2470 nM

Continuing:
So what IC50 did C=C1C(=O)OC2CC3(C)CCCC4(C)OC34CC12 (stereo not shown) [Compound 6, epoxyalloalantholactone, reference compound] get with RD (embryonic rhabdomyosarcoma)? 8770 nM

Lab note: need IC50 for C=C1CCCC2(C)CC3OC(=O)C(CNC4CC(OC5CC(O)(C(C)=O)Cc6c(O)c7c(c(O)c65)C(=O)c5c(OC)cccc5C7=O)OC(C)C4O)C3CC12 (stereo not shown) on RD (embryonic rhabdomyosarcoma), anyone have it? 960 nM

So what IC50 did C=C1CCCC2(C)CC3OC(=O)C(CNC4CC(OC5CC(O)(C(=O)CO)Cc6c(O)c7c(c(O)c65)C(=O)c5c(OC)cccc5C7=O)OC(C)C4O)C3CC12 (stereo not shown) get with RD (embryonic rhabdomyosarcoma)? 2410 nM

* * *

- test.system: complex II of the electron transport chain (Rattus norvegicus, UniProt P21913+Q641Z9+Q6PCT8+Q920L2)
- Construct: Rat heart mitochondria were isolated by differential centrifugation; from tissue; host or cells: rat heart mitochondria
- Sequence (Q920L2 35-656): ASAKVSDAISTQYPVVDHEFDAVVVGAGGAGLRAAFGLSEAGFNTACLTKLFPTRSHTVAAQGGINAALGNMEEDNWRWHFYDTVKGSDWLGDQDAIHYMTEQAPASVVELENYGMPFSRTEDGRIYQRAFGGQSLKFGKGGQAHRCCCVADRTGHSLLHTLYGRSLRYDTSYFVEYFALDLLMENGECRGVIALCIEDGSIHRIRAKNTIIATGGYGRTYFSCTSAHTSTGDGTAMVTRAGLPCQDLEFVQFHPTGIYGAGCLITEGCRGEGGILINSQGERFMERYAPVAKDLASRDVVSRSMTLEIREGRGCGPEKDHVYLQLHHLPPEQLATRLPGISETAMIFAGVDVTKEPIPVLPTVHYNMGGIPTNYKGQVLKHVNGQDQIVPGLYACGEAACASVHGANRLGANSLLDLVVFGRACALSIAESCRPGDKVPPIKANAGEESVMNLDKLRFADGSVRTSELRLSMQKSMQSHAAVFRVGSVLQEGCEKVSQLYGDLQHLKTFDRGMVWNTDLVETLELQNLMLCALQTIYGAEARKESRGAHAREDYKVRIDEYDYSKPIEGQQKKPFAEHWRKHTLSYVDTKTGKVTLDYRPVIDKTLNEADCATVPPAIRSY
- Sequence (P21913 31-282): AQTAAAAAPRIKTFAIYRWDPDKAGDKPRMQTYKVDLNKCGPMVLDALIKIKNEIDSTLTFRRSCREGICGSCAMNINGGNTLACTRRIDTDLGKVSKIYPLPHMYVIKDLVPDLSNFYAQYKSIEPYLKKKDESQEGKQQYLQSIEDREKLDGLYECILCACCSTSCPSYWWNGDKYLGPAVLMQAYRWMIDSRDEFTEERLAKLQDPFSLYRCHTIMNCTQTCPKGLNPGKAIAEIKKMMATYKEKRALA
- Sequence (Q641Z9 30-169 limits assumed): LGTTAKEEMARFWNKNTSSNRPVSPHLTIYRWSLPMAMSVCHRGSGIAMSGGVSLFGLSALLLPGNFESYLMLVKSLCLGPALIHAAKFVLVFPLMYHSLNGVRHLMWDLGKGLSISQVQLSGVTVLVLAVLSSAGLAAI
- Sequence (Q6PCT8 57-159): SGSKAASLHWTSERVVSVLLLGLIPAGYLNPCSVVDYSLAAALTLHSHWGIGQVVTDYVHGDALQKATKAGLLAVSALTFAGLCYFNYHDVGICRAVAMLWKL
- protocol: Respiratory chain complex II, OCR of isolated rat heart mitochondria (Seahorse)
- Type: biochemical
- protocol.conditions: isolated rat heart mitochondria 10 μg/well, compounds at 30 μM
property.label: Work of Respiratory Chain Complexes, % Decrease in OCR of Control, II (%)
Please give a number only; it is taken to be in %.

Some solved entries appear below for comparison.
Which Work of Respiratory Chain Complexes, % Decrease in OCR of Control, II value is on record for COc1cccc2c1C(=O)c1c(O)c3c(c(O)c1C2=O)C[C@@](O)(C(=O)CO)C[C@@H]3O[C@H]1C[C@H](N)[C@H](O)[C@H](C)O1 [a, doxorubicin, reference compound] ? 70.54

For the molecule "COc1cccc2c1C(=O)c1c(O)c3c(c(O)c1C2=O)C[C@@](O)(C(=O)CO)C[C@@H]3O[C@H]1C[C@H](NC[C@H]2C(=O)O[C@@H]3CC4=CCC[C@H](C)[C@@]4(C)[C@@H](O)[C@@H]32)[C@H](O)[C@H](C)O1" , what Work of Respiratory Chain Complexes, % Decrease in OCR of Control, II is on record? 33.21

# context switch: different molecule, same Work of Respiratory Chain Complexes, % Decrease in OCR of Control, II
What value of measured Work of Respiratory Chain Complexes, % Decrease in OCR of Control, II is listed for COc1cccc2c1C(=O)c1c(O)c3c(c(O)c1C2=O)C[C@@](O)(C(C)=O)C[C@@H]3O[C@H]1C[C@H](N)[C@H](O)[C@H](C)O1 [b, daunorubicin, reference compound] ? 72.12

* * *

- test.system: cytochrome-c-oxidase complex of the mitochondrial respiratory chain (IV) (Rattus norvegicus, UniProt P00406+P05503+P05505)
- Construct: Rat heart mitochondria were isolated by differential centrifugation; from tissue; host or cells: rat heart mitochondria
- Sequence (P00406 whole entry, other chains not shown): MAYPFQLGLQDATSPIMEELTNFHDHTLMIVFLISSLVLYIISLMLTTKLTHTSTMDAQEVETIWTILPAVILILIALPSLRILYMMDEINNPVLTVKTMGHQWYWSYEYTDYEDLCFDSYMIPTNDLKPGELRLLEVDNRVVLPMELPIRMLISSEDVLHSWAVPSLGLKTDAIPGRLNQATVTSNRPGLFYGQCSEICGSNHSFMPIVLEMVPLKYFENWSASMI
- Sequence (P05505 whole entry, other chains not shown): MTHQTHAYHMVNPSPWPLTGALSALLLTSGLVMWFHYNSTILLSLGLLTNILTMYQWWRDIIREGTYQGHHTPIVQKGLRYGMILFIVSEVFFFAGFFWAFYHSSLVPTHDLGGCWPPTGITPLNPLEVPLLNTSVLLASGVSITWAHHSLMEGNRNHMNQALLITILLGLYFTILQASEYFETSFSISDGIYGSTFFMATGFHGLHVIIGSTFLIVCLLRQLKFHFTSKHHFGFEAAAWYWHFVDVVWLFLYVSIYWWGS
- protocol: Respiratory chain complex IV, OCR of isolated rat heart mitochondria (Seahorse)
- Assay type: biochemical
- protocol.conditions: isolated rat heart mitochondria 10 μg/well, compounds at 30 μM
property.label: Work of Respiratory Chain Complexes, % Decrease in OCR of Control, IV (%)
# unit: % | format: bare number

Examples from the recorded data:
For COc1cccc2c1C(=O)c1c(O)c3c(c(O)c1C2=O)C[C@@](O)(C(=O)CO)C[C@@H]3O[C@H]1C[C@H](NC[C@H]2C(=O)O[C@@H]3C[C@@]4(C)CCC=C(C)C4=C[C@@H]32)[C@H](O)[C@H](C)O1 [Compound 8a] , what is its reported Work of Respiratory Chain Complexes, % Decrease in OCR of Control, IV? 25.95

I have this compound here, C=C1CCCC2(C)CC3OC(=O)C(CNC4CC(OC5CC(O)(C(=O)CO)Cc6c(O)c7c(c(O)c65)C(=O)c5c(OC)cccc5C7=O)OC(C)C4O)C3CC12 (stereo not shown) [Compound 1a] , and I need its recorded Work of Respiratory Chain Complexes, % Decrease in OCR of Control, IV. 24.52

More entries:
What value of measured Work of Respiratory Chain Complexes, % Decrease in OCR of Control, IV is listed for COc1cccc2c1C(=O)c1c(O)c3c(c(O)c1C2=O)CC(O)(C(C)=O)CC3OC1CC(NCC2C(=O)OC3CC4(C)CCCC5(C)OC45CC32)C(O)C(C)O1 (mixture of isomers) [Compound 6b] ? 41.69

Would you mind telling me what Work of Respiratory Chain Complexes, % Decrease in OCR of Control, IV value was observed for COc1cccc2c1C(=O)c1c(O)c3c(c(O)c1C2=O)C[C@@](O)(C(=O)CO)C[C@@H]3O[C@H]1C[C@H](NC[C@H]2C(=O)O[C@@H]3C[C@@]4(C)CCC[C@H](C)C4=C[C@@H]32)[C@H](O)[C@H](C)O1 [Compound 2a] ? 20.45

* * *

- Tested on: RD (embryonic rhabdomyosarcoma)
- protocol: MTT cell viability test, RD
- Assay type: cell-based, Human
- protocol.conditions: MTT, 72 h; read-out: IC50, RD
pIC50: −log10 of the molar value.
Assign yes to entries whose pIC50 meets or exceeds 6; assign no to the rest.

The examples below pair each entry with its known result.
Confirm if pIC50 reported for the compound "COc1cccc2c1C(=O)c1c(O)c3c(c(O)c1C2=O)C[C@@](O)(C(C)=O)C[C@@H]3O[C@H]1C[C@H](NC[C@H]2C(=O)O[C@@H]3C[C@@]4(C)CCCC(C)=C4C[C@@H]32)[C@H](O)[C@H](C)O1" is 6 or above. yes

Could you verify whether the entry COc1cccc2c1C(=O)c1c(O)c3c(c(O)c1C2=O)CC(O)(C(C)=O)CC3OC1CC(NCC2C(=O)OC3CC4(C)CCCC5(C)OC45CC32)C(O)C(C)O1 (mixture of isomers) shows pIC50 of no less than 6? yes

As a next step, examine the compound that follows.
Textbook exercise: given the entry "COc1cccc2c1C(=O)c1c(O)c3c(c(O)c1C2=O)C[C@@](O)(C(=O)CO)C[C@@H]3O[C@H]1C[C@H](NC[C@H]2C(=O)O[C@@H]3C[C@@]4(C)CCC[C@H](C)C4=C[C@@H]32)[C@H](O)[C@H](C)O1" , state whether its pIC50 is greater than or equal to 6. no

* * *

In this section, each of the compounds is paired with its reported Work of Respiratory Chain Complexes, % Decrease in OCR of Control, IV.
- test.system: cytochrome-c-oxidase complex of the mitochondrial respiratory chain (IV) (Rattus norvegicus, UniProt P00406+P05503+P05505)
- Construct: Rat heart mitochondria were isolated by differential centrifugation; from tissue; host or cells: rat heart mitochondria
- protocol: Respiratory chain complex IV, OCR of isolated rat heart mitochondria (Seahorse)
- Format: biochemical
- protocol.conditions: isolated rat heart mitochondria 10 μg/well, compounds at 30 μM
Numeric only. Scale: %

Completed entries (count: 5):
Please give the measured Work of Respiratory Chain Complexes, % Decrease in OCR of Control, IV for this compound: COc1cccc2c1C(=O)c1c(O)c3c(c(O)c1C2=O)CC(O)(C(C)=O)CC3OC1CC(NCC2C(=O)OC3CC4(C)CCCC(C)C45OC5C32)C(O)C(C)O1 (stereo not drawn) [Compound 5b] 21.56

Need Work of Respiratory Chain Complexes, % Decrease in OCR of Control, IV of COc1cccc2c1C(=O)c1c(O)c3c(c(O)c1C2=O)C[C@@](O)(C(=O)CO)C[C@@H]3O[C@H]1C[C@H](NC[C@H]2C(=O)O[C@@H]3CC4=CCC[C@H](C)[C@@]4(C)[C@@H](O)[C@@H]32)[C@H](O)[C@H](C)O1 [Compound 7a] , thanks. 38.16

// Work of Respiratory Chain Complexes, % Decrease in OCR of Control, IV lookup, key: COc1cccc2c1C(=O)c1c(O)c3c(c(O)c1C2=O)C[C@@](O)(C(=O)CO)C[C@@H]3O[C@H]1C[C@H](N)[C@H](O)[C@H](C)O1 [a, doxorubicin, reference compound] 37.73

Find the recorded Work of Respiratory Chain Complexes, % Decrease in OCR of Control, IV belonging to COc1cccc2c1C(=O)c1c(O)c3c(c(O)c1C2=O)CC(O)(C(=O)CO)CC3OC1CC(NCC2C(=O)OC3CC4(C)CCCC5(C)OC45CC32)C(O)C(C)O1 (mixture of isomers) [Compound 6a] and report it. 40.50

Dear colleague, I am looking for the recorded Work of Respiratory Chain Complexes, % Decrease in OCR of Control, IV of the following compound: COc1cccc2c1C(=O)c1c(O)c3c(c(O)c1C2=O)C[C@@](O)(C(C)=O)C[C@@H]3O[C@H]1C[C@H](NC[C@H]2C(=O)O[C@@H]3CC4=CCC[C@H](C)[C@@]4(C)[C@@H](O)[C@@H]32)[C@H](O)[C@H](C)O1 [Compound 7b] 46.08

Now for a further compound.
Name the recorded Work of Respiratory Chain Complexes, % Decrease in OCR of Control, IV for COc1cccc2c1C(=O)c1c(O)c3c(c(O)c1C2=O)CC(O)(C(=O)CO)CC3OC1CC(NCC2C(=O)OC3CC4(C)CCCC(C)C45OC5C32)C(O)C(C)O1 (stereo not drawn) [Compound 5a] . 23.99
